Catalogue of Tension interfaciale/ F-décaline readings, one per entry.
# RUN_DESCRIPTION: Interfacial tension between aqueous solutions and perfluorodecalin
# Format: physicochemical
# CONDITION_PARAMETERS: solution in water vs perfluorodécaline, 20°C, concentration 1 g/l

Solved entries:
Just so you know, measured Tension interfaciale/ F-décaline for C[N+](C)(C)C(CCC(F)(F)C(F)(F)C(F)(F)C(F)(F)C(F)(F)C(F)(F)C(F)(F)C(F)(F)F)C(=O)[O-] (centres unmarked) came out at 2,8 mN.m^-1

Just so you know, measured Tension interfaciale/ F-décaline for C[C@H](CCC(=O)NC(CCC(F)(F)C(F)(F)C(F)(F)C(F)(F)C(F)(F)C(F)(F)F)C(=O)O)[C@H]1CC[C@H]2[C@@H]3[C@H](O)C[C@@H]4C[C@H](O)CC[C@]4(C)[C@H]3C[C@H](O)[C@]12C (some centres unmarked) came out at 4,7 mN.m^-1

Just so you know, measured Tension interfaciale/ F-décaline for C[N+](C)(C)C(CCC(F)(F)C(F)(F)C(F)(F)C(F)(F)C(F)(F)C(F)(F)F)C(=O)[O-] (centres unmarked) came out at 3,1 mN.m^-1

Just so you know, measured Tension interfaciale/ F-décaline for `O=C(O)CNC(=O)CCC(F)(F)C(F)(F)C(F)(F)C(F)(F)C(F)(F)C(F)(F)C(F)(F)C(F)(F)F` came out at 7,1 mN.m^-1

Please examine the following record next.
Just so you know, measured Tension interfaciale/ F-décaline for C[N+](C)(C)C(CCC(F)(F)C(F)(F)C(F)(F)C(F)(F)F)C(=O)[O-] (centres unmarked) came out at 34,5 mN.m^-1
